# System: Nuclear receptor subfamily 5 group A member 2 (Homo sapiens) (UniProt O00482)
# Sequence (O00482 whole entry, looked up): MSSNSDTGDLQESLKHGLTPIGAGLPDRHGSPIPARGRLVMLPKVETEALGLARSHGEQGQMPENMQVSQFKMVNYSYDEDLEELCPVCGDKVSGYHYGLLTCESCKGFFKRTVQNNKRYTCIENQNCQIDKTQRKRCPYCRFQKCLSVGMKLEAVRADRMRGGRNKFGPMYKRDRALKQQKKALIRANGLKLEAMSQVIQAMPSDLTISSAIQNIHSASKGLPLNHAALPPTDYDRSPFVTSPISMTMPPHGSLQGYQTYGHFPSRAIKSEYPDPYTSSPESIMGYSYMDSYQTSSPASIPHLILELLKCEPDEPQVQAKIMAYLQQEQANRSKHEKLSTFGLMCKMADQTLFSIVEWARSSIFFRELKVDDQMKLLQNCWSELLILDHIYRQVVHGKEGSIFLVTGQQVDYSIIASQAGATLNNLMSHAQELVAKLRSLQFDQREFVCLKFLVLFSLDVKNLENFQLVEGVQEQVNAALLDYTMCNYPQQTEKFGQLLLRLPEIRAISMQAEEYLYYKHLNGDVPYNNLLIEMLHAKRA
# Protocol details: LRH-1 (NR5A2) inverse agonists, primary screen, cell-based, luminescence, HEK293T, StAR-luciferase reporter (AID 602396);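 further: 0% = DMSO wells and 100% = reporter-only cells lacking LRH-1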
# Cond: LRH-1 transfected, 24 h, at 3.6 µM, active compounds read high
The whole screen tested about 360,000 compounds, of which about 460 (0.13%) were called active. What follows is part of a selection rich in actives, with near analogues and random picks from the rest.
Metric: inhibition

Consider the reported inhibition for these compounds:
[[record]]
compound = "CCOc1ccc(Br)cc1S(=O)(=O)Nc1ccc(C(=O)OC(C)C(=O)N(C)c2ccccc2)cc1 (stereo not given)"
system = "Nuclear receptor subfamily 5 group A member 2 (Homo sapiens) (UniProt O00482)"
metric = "inhibition"
measurement = "-9.98% (inactive)"

[[record]]
compound = "CCn1nc(C)cc1C(=O)N1CCCC(C(=O)c2cccc(OC)c2)C1 (stereo not given)"
system = "Nuclear receptor subfamily 5 group A member 2 (Homo sapiens) (UniProt O00482)"
metric = "inhibition"
measurement = "6.22% (inactive)"

[[record]]
compound = "CC1CCCCC1NC(=O)NC(=O)COC(=O)C1=NN(c2ccccc2)C(=O)CC1 (stereo not given)"
system = "Nuclear receptor subfamily 5 group A member 2 (Homo sapiens) (UniProt O00482)"
metric = "inhibition"
measurement = "-11.1% (inactive)"


## Task Consider the compound COc1ccccc1-n1ccnc(SCC(=O)NC2CCCCC2)c1=O . State its measured inhibition.
## Result 1.62% (inactive)

## Task Could you please provide reported inhibition for CCCCCCCC[n+]1cccc(C(=O)N2c3c(nc(N)[nH]c3=O)NC(C)C2C)c1 (stereo not given) ? Thanks!
## Result 4.18% (inactive)
